Reference source: ChEMBL document CHEMBL3991601

- targetDesc: Dual specificity protein kinase CLK1 (Homo sapiens, UniProt P49759); note: in the data inactive means no Kd found up to 30 µM
- Sequence (P49759 whole entry): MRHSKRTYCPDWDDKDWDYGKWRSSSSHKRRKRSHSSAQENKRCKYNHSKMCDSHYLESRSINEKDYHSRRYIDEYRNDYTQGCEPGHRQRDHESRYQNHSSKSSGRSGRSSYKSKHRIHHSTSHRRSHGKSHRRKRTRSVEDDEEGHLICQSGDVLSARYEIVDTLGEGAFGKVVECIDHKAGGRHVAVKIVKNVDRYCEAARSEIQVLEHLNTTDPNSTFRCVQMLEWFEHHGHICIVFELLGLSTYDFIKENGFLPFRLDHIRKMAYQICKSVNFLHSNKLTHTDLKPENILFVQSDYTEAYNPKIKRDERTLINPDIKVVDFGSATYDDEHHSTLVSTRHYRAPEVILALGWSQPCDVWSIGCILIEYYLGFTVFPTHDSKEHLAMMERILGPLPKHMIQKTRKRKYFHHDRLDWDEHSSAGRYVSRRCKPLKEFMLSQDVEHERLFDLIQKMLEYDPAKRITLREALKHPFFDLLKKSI
Calls of active or inactive are those of the source.
Outcome codes: active, inactive

> print(dat)
                                   structure       cat
 1  CC[C@H](Nc1ncnc2[nH]cnc12)c1nc2cccc(F)c2c(=O)n1-c1ccccc1  inactive
 2  CC[C@@H]1C(=O)N(C)c2cnc(Nc3ccc(C(=O)N[C@H]4CC[C@H](N5CCN(CC6CC6)CC5)CC4)cc3OC)nc2N1C(C)C  inactive
 3  Cc1nc(N)sc1-c1ccnc(Nc2ccc(N3CCOCC3)cc2)n1    active
 4  C[C@@H](Nc1cc(F)cc(F)c1)c1cc(C(=O)N(C)C)cc2c(=O)cc(N3CCOCC3)oc12  inactive
 5  COc1ccc(-c2ccc3c(N4CCOC[C@@H]4C)nc(N4CCOC[C@@H]4C)nc3n2)cc1CO  inactive
 6  C[C@@H]1CN(Cc2ccc(F)cc2)[C@@H](C)CN1C(=O)c1cc2c(C(=O)C(=O)N(C)C)cn(C)c2cc1Cl  inactive
 7  CCCS(=O)(=O)Nc1ccc(F)c(C(=O)c2c[nH]c3ncc(-c4ccc(Cl)cc4)cc23)c1F  inactive
 8  COc1cc(N2CCC(N3CCN(C)CC3)CC2)ccc1Nc1ncnc(Nc2ccccc2S(=O)(=O)C(C)C)n1  inactive
 9  Cc1ccc(S(=O)(=O)Nc2nc3ccccc3nc2Nc2ccc3nsnc3c2)cc1  inactive
10  CC(=O)Nc1cccc(-n2c(=O)n(C3CC3)c(=O)c3c(Nc4ccc(I)cc4F)n(C)c(=O)c(C)c32)c1  inactive
11  Cc1cc([C@@H](C)Nc2ccccc2C(=O)O)c2nc(N3CCOCC3)cc(=O)n2c1  inactive
12  O=C(Nc1cccc(Cl)c1)Nc1ncc(CCNc2ncnc3ccsc23)s1  inactive
13  O=C(O)[C@]1(Cc2cccc(Nc3nccs3)n2)CC[C@@H](Oc2cccc(Cl)c2F)CC1  inactive
14  Cc1ccc(-n2nc(C(C)(C)C)cc2NC(=O)NCc2cc(F)ccc2Oc2ccc3c(cnn3CCO)c2)cc1  inactive
15  CN(C)C(=O)c1cc2cnc(Nc3ccc(N4CCNCC4)cn3)nc2n1C1CCCC1  inactive
16  CNC(=O)c1ccc(C)c(-n2c(C)cc(OCc3ccc(F)cc3F)c(Br)c2=O)c1  inactive
